Below, each of the substances is paired with its reported Primary screen Viability (% of control) Kelly DXR value.
system: KELLY cells; assay: Primary miRNA mimic screen in combination with low dose IC30 of vincristine or doxorubicin, cell viability; type: cell-based; settings: miRNA mimic 25 nM + low dose IC30 doxorubicin
valueType: Primary screen Viability (% of control) Kelly DXR

substance="hsa-miR-100-5p (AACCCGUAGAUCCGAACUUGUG; chemistry not given here; listed as Homo sapiens)" result="34 % of control"
substance="hsa-miR-3646 (AAAAUGAAAUGAGCCCAGCCCA; chemistry not given here; listed as Homo sapiens)" result="34 % of control"
substance="hsa-miR-3924 (AUAUGUAUAUGUGACUGCUACU; chemistry not given here; listed as Homo sapiens)" result="35 % of control"
substance="hsa-miR-3151 (GGUGGGGCAAUGGGAUCAGGU; chemistry not given here; listed as Homo sapiens)" result="40 % of control"

====

System: KELLY cells
Assay: Secondary validation screen of lethal miRNAs, cell viability
Format: cell-based
Conditions: miRNA mimic alone
Procedure: Each of the cell lines were reverse transfected in 384-well plate format with 25 nM of a miRNA from the Dharmacon miRNA mimic or inhibitor libraries (version 16.0) using liquid-handling robot Calliper Sciclone ALH3000 according to the conditions described in Table 3. After 24 hours, media was changed using BioTek 406, and 144 hours post-transfection, cell viability was determined using CellTiter-Glo luminescent assay (Promega) at 1:2 dilution. […]
Secondary screen Viability (% of control) KELLY overview
valueType: Secondary screen Viability (% of control) KELLY

substance="hsa-miR-491-3p (guide CUUAUGCAAGAUUCCCUUCUAC; chemistry not given here; listed as Homo sapiens)" systemtested="KELLY cells" result="12 % of control"
substance="hsa-miR-876-3p (guide UGGUGGUUUACAAAGUAAUUCA; chemistry not given here; listed as Homo sapiens)" systemtested="KELLY cells" result="6 % of control"
substance="hsa-miR-489 (guide GUGACAUCACAUAUACGGCAGC; chemistry not given here; listed as Homo sapiens)" systemtested="KELLY cells" result="4 % of control"
substance="hsa-miR-634 (guide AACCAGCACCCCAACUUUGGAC; chemistry not given here; listed as Homo sapiens)" systemtested="KELLY cells" result="13 % of control"
substance="hsa-miR-517c-3p (guide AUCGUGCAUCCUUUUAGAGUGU; chemistry not given here; listed as Homo sapiens)" systemtested="KELLY cells" result="27 % of control"
substance="hsa-miR-1231 (GUGUCUGGGCGGACAGCUGC; chemistry not given here; listed as Homo sapiens)" systemtested="KELLY cells" result="48 % of control"

====

Primary screen Viability (% of control) KELLY listing for selected substances.
tested on: KELLY cells; assay: Primary functional miRNA mimic screen, CellTiter-Glo cell viability; type: cell-based; conditions: miRNA mimic 25 nM alone, 144 hours post-transfection
valueType: Primary screen Viability (% of control) KELLY

substance="hsa-miR-654-5p (guide UGGUGGGCCGCAGAACAUGUGC; chemistry not given here; listed as Homo sapiens)" result="6 % of control"
substance="hsa-miR-192-3p (CUGCCAAUUCCAUAGGUCACAG; chemistry not given here; listed as Homo sapiens)" result="42 % of control"
substance="hsa-miR-892b (guide CACUGGCUCCUUUCUGGGUAGA; chemistry not given here; listed as Homo sapiens)" result="5 % of control"
substance="hsa-miR-876-3p (guide UGGUGGUUUACAAAGUAAUUCA; chemistry not given here; listed as Homo sapiens)" result="6 % of control"

The origin of these recorded values is patent US20190300882A1.
